# SYSTEM: TRIM25 CC-PRY/SPRY (Homo sapiens, UniProt Q14258 189-630)
# Sequence (Q14258 189-630): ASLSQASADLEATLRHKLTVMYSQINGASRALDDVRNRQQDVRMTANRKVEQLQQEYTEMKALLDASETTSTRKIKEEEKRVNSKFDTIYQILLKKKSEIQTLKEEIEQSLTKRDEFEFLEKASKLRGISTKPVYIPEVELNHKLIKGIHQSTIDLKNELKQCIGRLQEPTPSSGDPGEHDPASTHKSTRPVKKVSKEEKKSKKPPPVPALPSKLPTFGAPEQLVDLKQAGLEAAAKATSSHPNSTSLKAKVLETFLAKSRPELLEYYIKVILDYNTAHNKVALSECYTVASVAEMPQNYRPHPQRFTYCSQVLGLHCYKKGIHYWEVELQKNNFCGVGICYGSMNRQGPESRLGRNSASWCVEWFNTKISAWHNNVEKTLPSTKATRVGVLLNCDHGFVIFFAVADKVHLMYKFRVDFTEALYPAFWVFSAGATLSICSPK
# METHOD_NOTES: ITC; KD1 of two sites; ITC: 20 mM MES pH 6.5, 75 mM NaCl, 0.5 mM TCEP, 20 C; protein NMR: 20 mM sodium phosphate pH 6.5, 150 mM NaCl, 2 mM TCEP, 293 K
# RUN_CONDITIONS: protein: recombinant; tags: His-Trx, cleaved (3C); chain copies: 2; hairpin
ENDPOINT_NAME: pKd
Lab note — pKd values are minus log10 of concentrations in M.

Exercise: Entry GUAUAGUUUAAAGAAUGGAUAACUAUAC (structured_RNA) [pre-let-7_modified] : reported pKd = ?
Key: 6.74

All figures here come from paper PMC11445558.
